These entries and their values trace back to patent US12012440B2.

# System: C. albicans SC5314
# Assay Protocol: Renal fungal burden in kidney homogenates, murine disseminated candidiasis model
# Type: in vivo
# Setup Conditions: long term survivors 30 days p.i.; FIG. 16
A collection of substances and their measured renal fungal burden compared with fluconazole, P (Fisher's LSD test)

Examples with their reported renal fungal burden compared with fluconazole, P (Fisher's LSD test) follow.
>>> endpoint_value("Cyclic Peptide 3: synthetic cyclic tetradecapeptide θ-defensin analog; positions 3-14,1,2: C I C R R R V C I C R R G V (GVCICRRRVCICRR; cyclic backbone; Cyclic Peptide 3)")
"7.4×10^−3"
>>> endpoint_value("Cyclic Peptide 4: synthetic cyclic tetradecapeptide θ-defensin analog; positions 3-14,1,2: C I C R R R A C L C R R G L (GLCICRRRACLCRR; cyclic backbone; Cyclic Peptide 4)")
0.02
>>> endpoint_value("Cyclic Peptide 1: synthetic cyclic tetradecapeptide θ-defensin analog; positions 3-14,1,2: C S C R R R F C L C R R G V (GVCSCRRRFCLCRR; cyclic backbone; Cyclic Peptide 1)")
"3.5×10^−5"

We now examine a further substance.
[ask] Which value of renal fungal burden compared with fluconazole, P (Fisher's LSD test) has been reported for Cyclic Peptide 5: model synthetic cyclic tetradecapeptide θ-defensin analog; positions 3-14,1,2: C I C R R R F C L C R R G V (GVCICRRRFCLCRR; cyclic backbone; Cyclic Peptide 5) in the records?
[reply] 3×10^−3
